- Test system: Calf thymus DNA
- protocol notes: Apparent binding constant to calf thymus DNA (CT-DNA)
- Assay type: nucleic-acid assay
- measurement context: Bos taurus
assay endpoint: Kb
Write no unit; give the number alone.

Please report the recorded Kb for Cc1c(N)nc([C@H](CC(N)=O)NC[C@H](N)C(N)=O)nc1C(=O)N[C@H](C(=O)N[C@H](C)[C@@H](O)[C@H](C)C(=O)N[C@H](C(=O)NCCc1nc(-c2nc(C(=O)NCCCNCCCCNC(=O)[C@H](CC(C)C)NC(=O)[C@@H](N)C(C)C)cs2)cs1)[C@@H](C)O)[C@@H](O[C@@H]1O[C@@H](CO)[C@@H](O)[C@@H](O)[C@@H]1O[C@H]1O[C@H](CO)[C@@H](O)[C@H](OC(N)=O)[C@@H]1O)c1c[nH]cn1 .
423000

---

- System: BGC-823
- protocol notes: In vitro antitumor activity against humanBGC-823 tumor cell line
- Type: functional, cell-based
- measurement context: Homo sapiens
assay endpoint: IC50 (nM)
Write the number in nM without appending the unit.

>  <chem smiles>
Cc1c(N)nc([C@H](CC(N)=O)NC[C@H](N)C(N)=O)nc1C(=O)N[C@H](C(=O)N[C@H](C)[C@@H](O)[C@H](C)C(=O)N[C@H](C(=O)NCCc1nc(-c2nc(C(=O)NCCCNCCCCNC(=O)[C@H](CC(C)C)NC(=O)[C@H](N)C(C)C)cs2)cs1)[C@@H](C)O)[C@@H](O[C@@H]1O[C@@H](CO)[C@@H](O)[C@H](O)[C@@H]1O[C@H]1O[C@H](CO)[C@@H](O)[C@H](OC(N)=O)[C@@H]1O)c1c[nH]cn1

>  <measured number>
930

$$$$
>  <chem smiles>
Cc1c(N)nc([C@H](CC(N)=O)NC[C@H](N)C(N)=O)nc1C(=O)N[C@H](C(=O)N[C@H](C)[C@@H](O)[C@H](C)C(=O)N[C@H](C(=O)NCCc1nc(-c2nc(C(=O)NCCCNCCCCNC(=O)[C@H](CC(C)C)NC(=O)[C@@H](N)C(C)C)cs2)cs1)[C@@H](C)O)[C@@H](O[C@@H]1O[C@@H](CO)[C@@H](O)[C@@H](O)[C@@H]1O[C@H]1O[C@H](CO)[C@@H](O)[C@H](OC(N)=O)[C@@H]1O)c1c[nH]cn1

>  <measured number>
870

$$$$
>  <chem smiles>
Cc1c(N)nc([C@H](CC(N)=O)NC[C@H](N)C(N)=O)nc1C(=O)N[C@H](C(=O)N[C@H](C)[C@@H](O)[C@H](C)C(=O)N[C@H](C(=O)NCCc1nc(-c2nc(C(=O)NCCCNCCCCNC(=O)[C@H](N)CC(C)C)cs2)cs1)[C@@H](C)O)[C@@H](O[C@@H]1O[C@@H](CO)[C@@H](O)[C@H](O)[C@@H]1O[C@H]1O[C@H](CO)[C@@H](O)[C@H](OC(N)=O)[C@@H]1O)c1c[nH]cn1

>  <measured number>
730

$$$$

Please report the recorded IC50 for Cc1c(N)nc([C@H](CC(N)=O)NC[C@H](N)C(N)=O)nc1C(=O)N[C@H](C(=O)N[C@H](C)[C@@H](O)[C@H](C)C(=O)N[C@H](C(=O)NCCc1nc(-c2nc(C(=O)NCCCNCCCCN)cs2)cs1)[C@@H](C)O)[C@@H](O[C@@H]1O[C@@H](CO)[C@@H](O)[C@@H](O)[C@@H]1O[C@H]1O[C@H](CO)[C@@H](O)[C@H](OC(N)=O)[C@@H]1O)c1c[nH]cn1 .
1250

Please report the recorded IC50 for Cc1c(N)nc([C@H](CC(N)=O)NC[C@H](N)C(N)=O)nc1C(=O)N[C@H](C(=O)N[C@H](C)[C@@H](O)[C@H](C)C(=O)N[C@H](C(=O)NCCc1nc(-c2nc(C(=O)NCCCNCCCCNC(=O)[C@H](CCCCN)NC(=O)[C@@H](N)C(C)C)cs2)cs1)[C@@H](C)O)[C@@H](O[C@@H]1O[C@@H](CO)[C@@H](O)[C@H](O)[C@@H]1O[C@H]1O[C@H](CO)[C@@H](O)[C@H](OC(N)=O)[C@@H]1O)c1c[nH]cn1 .
1010

Please report the recorded IC50 for Cc1c(N)nc([C@H](CC(N)=O)NC[C@H](N)C(N)=O)nc1C(=O)N[C@H](C(=O)N[C@H](C)[C@@H](O)[C@H](C)C(=O)N[C@H](C(=O)NCCc1nc(-c2nc(C(=O)NCCCNCCCCNC(=O)[C@H](N)CCCCN)cs2)cs1)[C@@H](C)O)[C@@H](O[C@@H]1O[C@@H](CO)[C@@H](O)[C@H](O)[C@@H]1O[C@H]1O[C@H](CO)[C@@H](O)[C@H](OC(N)=O)[C@@H]1O)c1c[nH]cn1 .
920
